These data points were gathered from patent US20250034594A1.

# System: gene editing with dCas9
# PROTOCOL SUMMARY: Screen of 322 new SSAP proteins, gene editing activity with dCas9 (Table 5)
# Type: cell-based
# TEST SETTINGS: normalized
# Source text: 322 new SSAP proteins were identified from sequence data, synthesized, and screened for activity with Cas9 and dCas9. Gene editing activities are shown below in Table 5, followed by amino acid sequences of the proteins.
ENDPOINT NAME: dCas9 with SSAP activity (normalized)

INSERT INTO results (molecule, endpoint_name, measured) VALUES
  ('SSAP_195: SEQ ID NO: 364; Isoptericola dokdonensis (protein, listed as Isoptericola dokdonensis) TQDLATAIADQQPAQRRTAFDLVESMRGELHKALPEHASIDNFLRLALTELKMNPQLGNCSGESLLGALMTAARVGLEVGGPLGQFYLTPRRLKRDGWAVVPIVGYRGLITLARRAGVGQVNAVVVHEGDTFREGASSERGFFFDWEPAVERGKPVGALAAARLAGGDVQHRYLSLAEVHERRDRGGFKDGSNSPWATDYDAMVRKTALRALVPLLPQSTALSFAVQADEQVQRYDAGDIDIPALDETDTEDTK', 'dCas9 with SSAP activity (normalized)', '−0.956'),
  ('SSAP_156: SEQ ID NO: 325; Bacillus sp. AFS017336 (protein, listed as Bacillus sp.) ATNESLKNQITNKKTGEVPLTPAQQVSSYLKAYEGTFQQIAPKHFNTERFQRIALSEIRKNPKLLECSVPSLMSAVLQSVKLGLEPGLFGQAYLIPYGKEVQFQIGYRGLIELSQRSGRILKIQAREVYENDEFEVSYGIDDNIIHKPALDVDRGKVRLYYAVAWFKDGGAQFELMSISDVEKHRDKFSKTAKFGPWKDHFDEMAKKTVLKKLVKQLPMDVEFQEAVQEDETVRKTITDEPEILQAEFEIVDQPEISVE', 'dCas9 with SSAP activity (normalized)', '−0.877');
